Ref: ChEMBL document CHEMBL4699590

assayMethodText: Oral bioavailability in rat at 10 mg/kg
Format: ADME, organism-based
cond: in vivo
recordedMetric: bioavailability (%)
Numeric only. Scale: %

If you can, please state the reported bioavailability value of Cc1cn([C@@H](C)[C@]2(F)CCNC2)c2nc(C(N)=O)cc(Cl)c12 (stereo in doubt) .
59

* * *

assayMethodText: Permeability in human Caco2/TC7 cells at 5 uM
Format: ADME, cell-based
cond: Caco-2, read-out: permeability
Just a reminder that ties go to 0.0: only Papp at 5 µM strictly below 2 ×10⁻⁶ cm/s counts as 1.0.

These recorded examples may help you get a feel for the data.
{"columns": ["compound", "cat"],
 "data": [
  ["Cc1cn([C@H](C)[C@H]2CCNC[C@@H]2F)c2nc(C(N)=O)cc(Cl)c12 (racemic)", 0.0],
  ["Cc1cn([C@@H](C)[C@]2(F)CCNC2)c2nc(C(N)=O)cc(Cl)c12 (stereo in doubt)", 0.0],
  ["Cc1cn([C@H](C)[C@@H]2CCNC[C@H]2F)c2nc(C(N)=O)cc(Cl)c12 (racemic)", 0.0],
  ["Cc1cn([C@H](C)[C@]2(F)CCNC2)c2nc(C(N)=O)cc(Cl)c12 (stereo in doubt)", 1.0],
  ["Cc1cn([C@@H](C)[C@@H]2CCNC[C@@H]2F)c2nc(C(N)=O)cc(Cl)c12 (racemic)", 1.0]
]}

Item Cc1cn([C@@H](C)[C@H]2CCNC[C@H]2F)c2nc(C(N)=O)cc(Cl)c12 (racemic) : Papp at 5 µM beneath 2 ×10⁻⁶ cm/s, strictly?
1.0
